// reported %-inhibition of DYRK2 for each item listed
Target: panel of more than 300 wild-type and mutant kinases (313 kinase panel) (Homo sapiens, UniProt Q92630)
Sequence (Q92630 1-601): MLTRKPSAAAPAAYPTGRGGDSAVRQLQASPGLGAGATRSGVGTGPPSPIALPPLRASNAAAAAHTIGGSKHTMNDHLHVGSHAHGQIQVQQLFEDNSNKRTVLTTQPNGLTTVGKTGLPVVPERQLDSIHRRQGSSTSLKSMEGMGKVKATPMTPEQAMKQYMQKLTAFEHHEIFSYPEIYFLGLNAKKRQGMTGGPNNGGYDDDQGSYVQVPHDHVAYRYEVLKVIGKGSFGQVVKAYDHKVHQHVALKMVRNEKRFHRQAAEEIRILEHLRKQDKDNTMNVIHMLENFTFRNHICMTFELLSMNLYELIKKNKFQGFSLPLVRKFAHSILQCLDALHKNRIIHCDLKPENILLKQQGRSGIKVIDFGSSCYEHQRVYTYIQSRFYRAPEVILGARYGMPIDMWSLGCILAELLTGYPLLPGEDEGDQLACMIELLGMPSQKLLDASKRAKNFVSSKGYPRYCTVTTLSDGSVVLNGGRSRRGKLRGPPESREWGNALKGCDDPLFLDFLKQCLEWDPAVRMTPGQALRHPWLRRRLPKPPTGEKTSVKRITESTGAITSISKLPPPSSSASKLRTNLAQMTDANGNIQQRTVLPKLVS
Test: Kinase profiling in a biochemical assay panel (mobility shift assays and ELISA), %-inhibition at 1 μM; selectivity entropy
Conditions: kinase DYRK2; compound at 1 μM
Record the value in %, omitting the unit from your answer.

Some molecules with known %-inhibition of DYRK2 results, for comparison:
[
  {
    "Molecule": "C[C@@H](Oc1cc(-c2cnn(C3CCNCC3)c2)cnc1N)c1c(Cl)ccc(F)c1Cl",
    "Unit descriptor": "%",
    "Observed result": 10
  },
  {
    "Molecule": "COc1cc2c(Nc3ccc(Br)cc3F)ncnc2cc1OCC1CCN(C)CC1",
    "Unit descriptor": "%",
    "Observed result": -9
  },
  {
    "Molecule": "Cc1cn(-c2cc(NC(=O)c3ccc(C)c(Nc4nccc(-c5cccnc5)n4)c3)cc(C(F)(F)F)c2)cn1",
    "Unit descriptor": "%",
    "Observed result": 28
  },
  {
    "Molecule": "CC(=O)Nc1cccc(-n2c(=O)n(C3CC3)c(=O)c3c(Nc4ccc(I)cc4F)n(C)c(=O)c(C)c32)c1",
    "Unit descriptor": "%",
    "Observed result": -0.0865
  },
  {
    "Molecule": "N#CC[C@H](C1CCCC1)n1cc(-c2ncnc3[nH]ccc23)cn1",
    "Unit descriptor": "%",
    "Observed result": -10
  }
]

Enquiry: Fill blank: measured %-inhibition of DYRK2 of the molecule Cc1nc(Nc2ncc(C(=O)Nc3c(C)cccc3Cl)s2)cc(N2CCN(CCO)CC2)n1 is ____.
Return: 12

Enquiry: Fill blank: measured %-inhibition of DYRK2 of the molecule Cc1ccc(Nc2nccc(N(C)c3ccc4c(C)n(C)nc4c3)n2)cc1S(N)(=O)=O is ____.
Return: -1

====

// reported %-inhibition of PHKG1 for each item listed
target: panel of more than 300 wild-type and mutant kinases (313 kinase panel) (Homo sapiens, UniProt Q16816); test: Kinase profiling in a biochemical assay panel (mobility shift assays and ELISA), %-inhibition at 1 μM; selectivity entropy; conditions: kinase PHKG1; 1 μM
Sequence (Q16816 whole entry, change not shown): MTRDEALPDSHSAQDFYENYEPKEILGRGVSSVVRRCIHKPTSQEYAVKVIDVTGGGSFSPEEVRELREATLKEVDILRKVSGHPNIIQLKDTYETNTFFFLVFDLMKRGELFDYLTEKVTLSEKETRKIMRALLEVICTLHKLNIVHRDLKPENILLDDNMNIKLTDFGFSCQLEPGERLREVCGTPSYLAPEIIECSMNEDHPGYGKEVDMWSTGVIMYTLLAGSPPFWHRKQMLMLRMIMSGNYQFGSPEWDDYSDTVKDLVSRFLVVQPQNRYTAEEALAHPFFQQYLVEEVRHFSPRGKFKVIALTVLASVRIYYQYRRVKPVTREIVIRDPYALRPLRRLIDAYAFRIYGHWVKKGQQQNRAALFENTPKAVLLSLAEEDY
Record the value in %, omitting the unit from your answer.

[
  {
    "Molecule": "CS(=O)(=O)CCNCc1ccc(-c2ccc3ncnc(Nc4ccc(OCc5cccc(F)c5)c(Cl)c4)c3c2)o1 [lapatinib]",
    "Observed result": 4.72
  },
  {
    "Molecule": "CO[C@H]1C[C@@H]2CC[C@@H](C)[C@@](O)(O2)C(=O)C(=O)N2CCCC[C@H]2C(=O)O[C@H]([C@H](C)C[C@@H]2CC[C@@H](OC(=O)C(C)(CO)CO)[C@H](OC)C2)CC(=O)[C@H](C)/C=C(\\C)[C@@H](O)[C@@H](OC)C(=O)[C@H](C)C[C@H](C)/C=C/C=C/C=C/1C [temsirolimus]",
    "Observed result": 1.57
  }
]

Enquiry: Fill blank: measured %-inhibition of PHKG1 of the molecule C[C@@H](Oc1cc(-c2cnn(C3CCNCC3)c2)cnc1N)c1c(Cl)ccc(F)c1Cl [crizotinib] is ____.
Return: 2.74

Enquiry: Fill blank: measured %-inhibition of PHKG1 of the molecule CCCS(=O)(=O)Nc1ccc(F)c(C(=O)c2c[nH]c3ncc(-c4ccc(Cl)cc4)cc23)c1F [vemurafenib] is ____.
Return: -0.913
